# pIC50 per record follows
# TESTED ON: BRD2 BD2 (Homo sapiens, UniProt P25440)
# Construct: BRD2 BD2, BRD3 BD2 and BRD4 BD2 (Cisbio)
# Sequence (P25440 344-453 limits assumed): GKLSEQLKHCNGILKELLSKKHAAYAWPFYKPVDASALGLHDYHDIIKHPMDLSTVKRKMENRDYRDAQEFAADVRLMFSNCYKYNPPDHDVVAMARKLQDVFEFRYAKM
# EXPERIMENTAL DETAILS: Binding assay, BRD2 BD2 to acetylated histone H4 Peptide-Biotin (EPIgeneous Binding Domain Kit B)
Please express pIC50 as -log10 of the molar concentration.

Would you please look over these solved cases?
CCn1c(=O)cc(C2CCN(C)CC2)c2cc(C(=O)N(C)c3ccc4c(c3)CCC4)ccc21 [Example 17]; 7.48
CCn1c(=O)cc(C2CCN(C)CC2)c2cc(C(=O)N(C)c3ccc(C)cc3)ccc21 [Example 14]; 7.03
CCn1c(=O)cc(N2CCOCC2)c2cc(-n3c(-c4ccc(Cl)cc4)cn(C)c3=O)ccc21 [Example 246]; 7.74
CCn1c(=O)cc(C2CCN(C(C)=O)CC2)c2cc(C(=O)N(C)c3ccc(C)cc3)ccc21 [Example 290]; 7.07

Now turn to the next compound.
Tested on BRD2 BD2 (Homo sapiens, UniProt P25440), the item CCn1c(=O)cc(N2CCOCC2)c2cc(-n3c(-c4ccc(Cl)cc4)c[nH]c3=O)ccc21 [Example 245] showed pIC50 equal to 8.15

Data credit: patent US10987349B2
